- System: Escherichia coli (DSM 1116)
- Format: cell-based
- Measurement Parameters: DSM 1116, 20 h
Numbered stars: 1 amine (or outer) side, 2 acyl side, 3 side chain; on linkers, the order of the positions; unused ones are H or OH. Square brackets hold non-standard residues; d marks the D form. Peptide text beside a SMILES is read from it. X1 = O=C([C@H](Cc1ccc2oc(-c3ccco3)c(O)c(=O)c2c1)N[*:1])[*:2]
Result Type: MIC E. coli (µM)
All answers are understood in µM, so give the number only.

Recorded results for 3 compounds are shown here.
| Compound | Measurement Units | MIC E. coli |
| --- | --- | --- |
| N=C(N)NCCC[C@@H]1NC(=O)[C@H](CCCNC(=N)N)NC(=O)[C@H](Cc2c[nH]c3ccccc23)NC(=O)[C@H](Cc2ccc3oc(-c4ccco4)c(O)c(=O)c3c2)NC(=O)[C@H](Cc2c[nH]c3ccccc23)NC(=O)[C@H](CCCNC(=N)N)NC1=O [cRW-F^2/FHC] (cyclo(RRRW[X1]W)) | µM | 28.1 |
| N=C(N)NCCC[C@@H]1NC(=O)[C@H](CCCNC(=N)N)NC(=O)[C@H](Cc2c[nH]c3ccccc23)NC(=O)[C@H](Cc2ccccc2)NC(=O)[C@H](Cc2c[nH]c3ccccc23)NC(=O)[C@H](CCCNC(=N)N)NC1=O [cWFW, cyclo[RRRWFW]] (cyclo(FWRRRW)) | µM | 8.1 |
| N=C(N)NCCC[C@@H]1NC(=O)[C@H](CCCNC(=N)N)NC(=O)[C@H](Cc2ccc3oc(-c4ccco4)c(O)c(=O)c3c2)NC(=O)[C@H](Cc2ccccc2)NC(=O)[C@H](Cc2c[nH]c3ccccc23)NC(=O)[C@H](CCCNC(=N)N)NC1=O [cRW-W^3/FHC] (cyclo(F[X1]RRRW)) | µM | 29.1 |

Continue with the compound presented below.
Q: Look up MIC E. coli for this compound: N=C(N)NCCC[C@@H]1NC(=O)[C@H](CCCNC(=N)N)NC(=O)[C@H](Cc2c[nH]c3ccccc23)NC(=O)[C@H](Cc2ccccc2)NC(=O)[C@H](Cc2ccc3oc(-c4ccco4)c(O)c(=O)c3c2)NC(=O)[C@H](CCCNC(=N)N)NC1=O [cRW-W^1/FHC] (cyclo(FWRRR[X1]))
Result: 29.1
